These data points were gathered from paper PMC3479139.

Biological target: double-stranded 17-mer DNA fragment
Assay: ThO (Thiazole Orange) DNA displacement assay;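 note: miniaturized displacement of the intercalating dye from unlabeled duplex DNA, used to flag nonspecific DNA binders, chiefly intercalators, groove binders may be missed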
Format: binding
Conditions: read-out: ThO-DNA binding IC50
reportedProperty: IC50

CN(CC(=O)Nc1c(Cl)cccc1Cl)C(=O)c1cccc(-n2cccc2)c1 ... > 57 µM
CC(C)(C)OC(=O)C[C@@H]1C/C=C\C[C@H](CC(=O)NCCO)C(=O)N2CCC[C@H]2COC1=O ... > 57 µM
O=C(COC(=O)/C=C/c1ccco1)NCc1ccc2c(c1)OCO2 ... > 57 µM
COc1ccc(CCn2c(O)cc3nn(-c4nc5ccccc5s4)c(=O)c-3c2C)cc1 ... 10 µM
CC(C)C(C(=O)O)N1C(=O)/C(=C/C=C/c2ccco2)SC1=S (centres unmarked) ... > 57 µM
COCCN(C(=O)COC(=O)c1cc2c(s1)CCC2)c1c(N)n(Cc2ccccc2)c(=O)[nH]c1=O ... > 57 µM
O=C(COC(=O)c1ccccc1)Nc1ncc([N+](=O)[O-])s1 ... 32.4 µM
O=C1/C(=C/C=C/c2ccco2)SC(=S)N1NS(=O)(=O)c1ccccc1 ... > 57 µM
COc1ccccc1N(CC(=O)NCc1ccco1)S(=O)(=O)c1ccc(C)cc1 ... > 57 µM
COc1ccc2c(c1)c(=O)oc1cc(OCC(=O)N3CCc4ccccc4C3)ccc12 ... > 57 µM
O=C(c1cccc(-n2cccc2)c1)N1CCN(S(=O)(=O)c2ccccc2)CC1 ... > 57 µM
CCC(C)C(=O)OCC1(c2ccc(C)cc2OC(=O)C(C)C)CO1 (centres unmarked) ... > 57 µM
COc1cc(/C=N/Nc2ccc(C(=O)O)cc2)ccc1O ... > 57 µM
O=C1COc2ccc(C(=O)COC(=O)/C=C/c3ccc(Br)o3)cc2N1 ... > 57 µM
O=C(CCC(=O)c1ccc(Oc2ccccc2)cc1)Nc1ccc(C(=O)O)cc1 ... > 57 µM
COc1ccc(NC(=O)CN(C)C(=O)c2cccc(-n3cccc3)c2)cc1 ... > 57 µM
Cc1ccc(C)c(OCCn2ccnc2)c1 ... > 57 µM
COc1ccc(S(=O)(=O)N2CCN(C(=O)c3cc4c(s3)CCC4)CC2)cc1 ... > 57 µM
CSC1=N/C(=C\c2ccc(Br)o2)C(=O)S1 ... > 57 µM
Cc1ccc(NC(=O)CN2C(=O)S/C(=C\c3cccn3-c3cccc(C(=O)O)c3)C2=O)c(C)c1 ... > 57 µM
O=C(CSc1nc2sc3c(c2c(=O)n1-c1ccccc1)CCCC3)NN=Cc1ccccc1C(=O)O ... > 57 µM
O=S(=O)(Nc1ccccc1)c1cccc2nsnc12 ... > 57 µM
O=c1oc2c(cc1O)oc(=O)c1cc(O)c(O)c(O)c12 ... 6.3 µM
O=C(COC(=O)Cc1cccc(C(F)(F)F)c1)NCc1ccco1 ... > 57 µM
CCOC(=O)C1CCCN(C(=O)c2cc(-c3ccco3)nc3ccccc23)C1 (centres unmarked) ... 32.4 µM
O=C(/C=C/c1ccco1)OCC(=O)N1CCCCC1 ... > 57 µM
O=C(COC(=O)c1cc2c(s1)CCC2)Nc1ccc(F)cc1 ... > 57 µM
O=C(O)c1ccc(N2C(=O)c3cccc4c(C(=O)O)ccc(c34)C2=O)cc1 ... > 57 µM
COc1ccc(NC(=O)CN(C)C(=O)c2cc3c(s2)CCC3)cc1 ... 40.8 µM
CCCCN(C(=O)c1cccc(-n2cccc2)c1)c1c(N)n(Cc2ccccc2)c(=O)[nH]c1=O ... > 57 µM
Cn1cccc1/C=C1\C(=O)NC(=O)N(Cc2ccco2)C1=O ... > 57 µM
O=C(N/N=C/c1cccn1-c1cccc(C(=O)O)c1)Nc1ccccc1 ... > 57 µM
COCCN(CC(=O)Nc1cccc(C)c1C)C(=O)c1cc2c(s1)CCC2 ... > 57 µM
COC(=O)c1ccn(CC(=O)NC2CCCCC2)n1 ... > 57 µM
CCNc1nc(NCC)n2c(SCC(=O)Nc3ccc(OC(F)F)cc3)nnc2n1 ... > 57 µM

----------
Molecular target: APE1 (Homo sapiens, UniProt P27695)
Construct: made in house
Sequence (P27695 whole entry): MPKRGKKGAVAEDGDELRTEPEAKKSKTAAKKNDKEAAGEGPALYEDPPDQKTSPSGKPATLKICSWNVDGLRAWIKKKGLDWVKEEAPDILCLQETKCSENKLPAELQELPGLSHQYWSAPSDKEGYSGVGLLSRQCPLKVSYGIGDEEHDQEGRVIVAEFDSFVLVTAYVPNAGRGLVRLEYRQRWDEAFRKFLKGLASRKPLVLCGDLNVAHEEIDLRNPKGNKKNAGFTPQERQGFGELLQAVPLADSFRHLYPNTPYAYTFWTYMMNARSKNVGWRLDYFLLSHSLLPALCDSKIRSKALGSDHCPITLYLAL
Test: Fluorescence polarization (FP) displacement assay of APE1 binding to AP-DNA probe
Details: read-out: FP IC50
pIC50: −log10 of the molar value.
Listing of recorded pIC50 by entry.
reportedProperty: pIC50

Cc1c(O)cc2c(c1O)C(=O)CC(c1ccc(O)cc1)O2 (centres unmarked) ... < 4.24
O=c1ccc2[n+]([O-])c3ccc([O-])cc3oc-2c1.[Na+] ... 7.70
O=c1oc2c(cc1O)oc(=O)c1cc(O)c(O)c(O)c12 ... < 4.24
O=C1C=C(c2ccc3cc[nH]c3c2)C[C@@H](c2ccc3c(c2)OCO3)C1 ... < 4.24
N#Cc1c(NC(=O)COC(=O)c2ccc(O)cc2O)sc2c1CCC2 ... < 4.24
CC1OC(OCC2OC(Oc3c(-c4ccc(O)cc4)oc4cc(O)cc(O)c4c3=O)C(O)C(O)C2O)C(O)C(O)C1O (centres unmarked) ... < 4.24
Cc1ccc(NC(=O)CN2C(=O)S/C(=C/c3ccc(-c4cc(C(=O)O)ccc4C)o3)C2=O)cc1C ... 5.00
NC(=O)Cn1c(=O)n(Cc2ccco2)c(=O)c2c3c(sc21)CCCCC3 ... 5.15
COc1ccc(C(=O)Nc2ccnn2C2CCN(Cc3ccc4nonc4c3)CC2)cc1 ... < 4.24
CCOc1ccc(NC(=O)c2cccc(-n3cccc3)c2)cc1S(=O)(=O)N1CCOCC1 ... < 4.24
COc1ccc(S(=O)(=O)NCCC(=O)NC2CCCCC2C)cc1[N+](=O)[O-] (centres unmarked) ... 4.69
O=c1/c(=C/c2ccco2)sc2nc(-c3ccccc3Br)nn12 ... < 4.24
Cc1ccc(NC(=O)CN2C(=O)N/C(=C\c3cccn3-c3cccc(C(=O)O)c3)C2=O)cc1 ... 4.85
CC(=O)c1ccc(NC(=O)c2ccc3nc(-c4ccco4)c(-c4ccco4)nc3c2)cc1 ... < 4.24
C=CC1=C(C(=O)O)N2C(=O)[C@@H](NC(=O)/C(=N\OCC(=O)O)c3csc(N)n3)[C@H]2SC1 ... < 4.24
COc1ccc(C(CC(=O)N2CCCCC2)c2c(OC)cc(OC)c3c(-c4ccccc4)cc(=O)oc23)cc1 (centres unmarked) ... 4.85
O=c1nc(N/N=C/c2ccco2)cn[nH]1 ... < 4.24

----------
Target: APE1 (Homo sapiens)
Construct: made in house
Experiment: Fluorogenic kinetic qHTS APE1 incision assay (primary screen and retest of cherrypicked samples)
Type: biochemical
Settings: initial quantitative high-throughput screen; read-out: APE1 qHTS IC50
pIC50: −log10 of the molar value.
Label Y for high-side pIC50 (at or above 5) and N for low-side pIC50 (below it).

NS(=O)(=O)c1cc(C(=O)NC2CCSc3ccccc32)ccc1Cl (centres unmarked) ... Y
CC(=O)Oc1cc(C(=O)OCC(=O)N2CCc3ccccc3C2)cc(OC(C)=O)c1OC(C)=O ... Y
Cc1cc(C)c2nc(-c3ccco3)cc(C(=O)O)c2c1 ... Y
COC(=O)c1ccn(CC(=O)NC2CCCCC2)n1 ... N

----------
Molecular target: APE1 (Homo sapiens, UniProt P27695)
Construct: made in house
Assay: Fluorogenic kinetic qHTS APE1 incision assay (primary screen and retest of cherrypicked samples);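 note: purified APE1 cleaving a fluorophore/dark-quencher labelled 17-mer duplex DNA bearing a tetrahydrofuran AP site, fluorescence rise followed kinetically over the first 2 min, inhibition normalized to controls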
Type: biochemical
Conditions: APE1 qHTS IC50, initial quantitative high-throughput screen
reportedProperty: IC50

O=C1NC(=O)N(Cc2ccco2)C(=O)C1=CC=Cc1ccco1 ... 2800 nM

----------
Molecular target: APE1 (Homo sapiens)
Construct: made in house
Assay: Fluorescence polarization (FP) displacement assay of APE1 binding to AP-DNA probe;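 note: TAMRA 5′-labeled duplex DNA with THF abasic site (5 nM) and APE1 (20 nM), Mg2+-free buffer, 15 min at room temperature, inhibition seen as lowered polarization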
Conditions: read-out: FP IC50
Mark each entry Criterion met if its IC50 sits below 10 µM, and Criterion not met for all others.

Cn1cnnc1SCC(=O)Nc1nc(-c2ccccc2)cs1 [MLS000711532] ... Criterion not met
Nc1c(C(=O)OCC(=O)Nc2cccc([N+](=O)[O-])c2)[nH]c(=O)[nH]c1=O [MLS002171489] ... Criterion not met
CC(=O)N[C@H]1C(O[C@@H]2O[C@H](C[C@@H](O)[C@H]3O[C@@H](N4CCC(=O)NC4=O)[C@H](O)[C@@H]3O)[C@H](O)[C@H](O)[C@H]2NC(=O)/C=C/CCCCCCCCCCC(C)C)OC(CO)[C@@H](O)[C@@H]1O (stereo partly drawn) [NCGC00161652] ... Criterion not met
O=c1cc(-c2ccc(O)cc2)oc2c(C3OCC(O)C(O)C3O)c(O)c(C3OC(CO)C(O)C(O)C3O)c(O)c12 (stereo not drawn) [MLS000876755] ... Criterion not met
N#C/C(=C\c1ccc(O)c(O)c1)C(=O)Nc1cccc2ncccc12 [MLS001173932] ... Criterion not met
Cc1ccc2c(=O)c3ccccc3n(CCCN)c2c1C [NCGC00161415] ... Criterion met
O=C(O)C1CCCCC1C(=O)Nc1cccc(Br)c1 (stereo not drawn) [MLS002152987] ... Criterion not met
COc1ccc(S(=O)(=O)N2CCN(C(=O)c3cc4c(s3)CCC4)CC2)cc1 [MLS002248682] ... Criterion not met
CCn1c(SCC(=O)O)nc2sc3c(c2c1=O)CCC3 [MLS000069140] ... Criterion not met
O=C(O)c1ccc(-c2ccc(/C=c3/sc4nc5ccccc5n4c3=O)o2)cc1Cl [MLS001196440] ... Criterion not met
O=C(O)C[C@@H]1C(=O)O[C@@H]2C(COC(=O)c3cc(O)c(O)c(O)c3)O[C@@H](OC(=O)c3cc(O)c(O)c(O)c3)[C@@H](OC(=O)c3cc(O)c(O)c4c3[C@H]1[C@H](O)C(=O)O4)[C@H]2OC(=O)c1cc(O)c(O)c(O)c1 (stereo partly drawn) [MLS000697665] ... Criterion not met
Nc1ccc2c(c1Cl)C(=O)c1ccc(N)c(Cl)c1C2=O [MLS000737360] ... Criterion met
Cn1cnnc1SCC(=O)Nc1ncc([N+](=O)[O-])s1 [MLS002252055] ... Criterion not met
COc1ccc2c(c1)c(=O)oc1cc(OCC(=O)N3CCC(C)CC3)ccc12 [MLS000088142] ... Criterion not met
O=C(CCCN1C(=O)/C(=C/c2ccco2)SC1=S)Nc1ccccc1C(=O)O [MLS000778775] ... Criterion met
